# EC50 per entry
- Target system: Adenylate cyclase type 2 (Homo sapiens, UniProt Q08462)
- Sequence (Q08462 whole entry): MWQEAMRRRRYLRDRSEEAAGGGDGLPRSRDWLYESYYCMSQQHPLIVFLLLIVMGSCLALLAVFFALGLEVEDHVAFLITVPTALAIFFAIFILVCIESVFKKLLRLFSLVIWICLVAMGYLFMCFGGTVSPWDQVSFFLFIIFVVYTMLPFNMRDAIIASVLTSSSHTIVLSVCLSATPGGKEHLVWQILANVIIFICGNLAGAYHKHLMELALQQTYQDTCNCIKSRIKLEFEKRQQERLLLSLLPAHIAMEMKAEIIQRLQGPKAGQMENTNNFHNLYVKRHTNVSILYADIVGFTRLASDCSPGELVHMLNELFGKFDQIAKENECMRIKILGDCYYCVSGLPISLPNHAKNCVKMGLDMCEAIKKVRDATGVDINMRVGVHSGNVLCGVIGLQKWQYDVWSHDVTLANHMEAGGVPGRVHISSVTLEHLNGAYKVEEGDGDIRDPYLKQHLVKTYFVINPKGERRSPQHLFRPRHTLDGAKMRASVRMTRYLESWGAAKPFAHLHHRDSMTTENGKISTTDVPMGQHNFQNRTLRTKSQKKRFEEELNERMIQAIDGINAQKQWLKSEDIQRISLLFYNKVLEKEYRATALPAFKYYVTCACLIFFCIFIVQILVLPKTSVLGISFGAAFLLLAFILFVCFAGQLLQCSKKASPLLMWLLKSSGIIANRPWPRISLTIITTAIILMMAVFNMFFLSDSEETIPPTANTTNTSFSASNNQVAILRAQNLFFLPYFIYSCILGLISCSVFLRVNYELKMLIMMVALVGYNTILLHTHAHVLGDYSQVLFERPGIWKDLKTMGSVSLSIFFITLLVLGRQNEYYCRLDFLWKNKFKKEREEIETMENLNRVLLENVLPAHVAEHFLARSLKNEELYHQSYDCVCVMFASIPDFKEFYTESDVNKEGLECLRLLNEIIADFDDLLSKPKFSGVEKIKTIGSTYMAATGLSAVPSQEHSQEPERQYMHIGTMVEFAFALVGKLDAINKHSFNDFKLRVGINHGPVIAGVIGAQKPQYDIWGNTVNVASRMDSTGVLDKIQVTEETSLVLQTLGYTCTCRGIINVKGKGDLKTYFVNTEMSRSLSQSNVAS
- Assay summary: Agonist activity at recombinant human AC2 expressed in HEK293 cells assessed as increase in cAMP level measured after 30 mins by LANCE Ultra cAMP Detection kit method
Readout label: EC50 (nM)

INSERT INTO assay_data (smiles_repr, reading_unit, reported_value) VALUES
  ('O=C1[C@H]2[C@@H](c3ccccc3)OC3(C(=O)c4ccccc4C3=O)[C@H]2C(=O)N1c1ccc(Cl)cc1', 'nM', 2060),
  ('CCOc1ccc(N2C(=O)[C@H]3[C@@H](c4ccc(C)cc4)OC4(C(=O)c5ccccc5C4=O)[C@H]3C2=O)cc1', 'nM', 10800),
  ('Cc1ccc([C@H]2OC3(C(=O)c4ccccc4C3=O)[C@H]3C(=O)N(C4CC4)C(=O)[C@@H]23)cc1', 'nM', 3370),
  ('Cc1ccc([C@H]2OC3(C(=O)c4ccccc4C3=O)[C@H]3C(=O)N(c4ccc(C)c(Cl)c4)C(=O)[C@@H]23)cc1', 'nM', 750);

====

- Target system: UniProtKB Q08462
- Assay summary: Agonist activity at recombinant human AC2 expressed in HEK293 cells assessed as increase in cAMP level by measuring cAMP level at 50 uM measured after 30 mins by LANCE Ultra cAMP Detection kit method relative to control
- Assay type: cell-based
- Conditions: filed as agonist
Readout label: Activity (%)

INSERT INTO measurements (molecule, target_system, readout_label, reading_unit, reported_value) VALUES
  ('O=C1[C@H]2[C@@H](c3ccccc3)OC3(C(=O)c4ccccc4C3=O)[C@H]2C(=O)N1c1cccc(Cl)c1', 'UniProtKB Q08462', 'Activity', '%', 103),
  ('COc1cc(C)ccc1N1C(=O)[C@H]2[C@@H](c3cccc(C)c3)OC3(C(=O)c4ccccc4C3=O)[C@H]2C1=O', 'UniProtKB Q08462', 'Activity', '%', 103),
  ('Cc1ccc([C@H]2OC3(C(=O)c4cccc(Br)c4C3=O)[C@H]3C(=O)N(c4ccccc4Cl)C(=O)[C@@H]23)cc1 (mixture of isomers)', 'UniProtKB Q08462', 'Activity', '%', 76),
  ('Cc1ccc([C@H]2OC3(C(=O)c4ccccc4C3=O)[C@H]3C(=O)N(C4CCCCC4)C(=O)[C@@H]23)cc1', 'UniProtKB Q08462', 'Activity', '%', 69.5),
  ('Cc1ccc(Cl)cc1N1C(=O)[C@H]2[C@@H](c3ccccc3)OC3(C(=O)c4ccccc4C3=O)[C@H]2C1=O', 'UniProtKB Q08462', 'Activity', '%', 101),
  ('COc1cccc(N2C(=O)[C@H]3[C@@H](c4ccc(C)cc4)OC4(C(=O)c5ccccc5C4=O)[C@H]3C2=O)c1', 'UniProtKB Q08462', 'Activity', '%', 84.6),
  ('CCC[C@H]1OC2(C(=O)c3ccccc3C2=O)[C@H]2C(=O)N(c3ccccc3Cl)C(=O)[C@@H]12', 'UniProtKB Q08462', 'Activity', '%', 59.6),
  ('CCOc1ccc(N2C(=O)[C@H]3[C@@H](c4ccccc4)OC4(C(=O)c5ccccc5C4=O)[C@H]3C2=O)cc1', 'UniProtKB Q08462', 'Activity', '%', 82.3),
  ('Cc1cccc([C@H]2OC3(C(=O)c4ccccc4C3=O)[C@H]3C(=O)N(c4ccccc4Cl)C(=O)[C@@H]23)c1', 'UniProtKB Q08462', 'Activity', '%', 57.4),
  ('O=C1[C@H]2[C@@H](c3ccccc3)OC3(C(=O)c4ccccc4C3=O)[C@H]2C(=O)N1c1ccc(Cl)cc1', 'UniProtKB Q08462', 'Activity', '%', 91.5),
  ('COc1cccc([C@H]2OC3(C(=O)c4ccccc4C3=O)[C@H]3C(=O)N(c4ccc(C)cc4)C(=O)[C@@H]23)c1', 'UniProtKB Q08462', 'Activity', '%', 97.8),
  ('Cc1ccc([C@H]2OC3(C(=O)c4ccccc4C3=O)[C@H]3C(=O)N(C4CC4)C(=O)[C@@H]23)cc1', 'UniProtKB Q08462', 'Activity', '%', 70.8),
  ('CC/C=C(\CCC)[C@H]1OC2(C(=O)c3ccccc3C2=O)[C@H]2C(=O)N(c3ccccc3Cl)C(=O)[C@@H]12', 'UniProtKB Q08462', 'Activity', '%', 44.5),
  ('Cc1ccc([C@H]2OC3(C(=O)c4ccccc4C3=O)[C@H]3C(=O)N(c4ccc(C)c(C)c4)C(=O)[C@@H]23)cc1', 'UniProtKB Q08462', 'Activity', '%', 104),
  ('COc1ccc(OC)c(N2C(=O)[C@H]3[C@@H](c4ccc(C)cc4)OC4(C(=O)c5ccccc5C4=O)[C@H]3C2=O)c1', 'UniProtKB Q08462', 'Activity', '%', 103),
  ('Cc1ccc(N2C(=O)[C@H]3[C@@H](c4cccc(Cl)c4)OC4(C(=O)c5ccccc5C4=O)[C@H]3C2=O)cc1', 'UniProtKB Q08462', 'Activity', '%', 97.9),
  ('Cc1cc(C)cc(N2C(=O)[C@H]3[C@@H](c4ccc(Cl)cc4)OC4(C(=O)c5ccccc5C4=O)[C@H]3C2=O)c1', 'UniProtKB Q08462', 'Activity', '%', 96.9),
  ('Cc1ccc([C@H]2OC3(C(=O)c4cccc(C)c4C3=O)[C@H]3C(=O)N(c4ccccc4Cl)C(=O)[C@@H]23)cc1 (mixture of isomers)', 'UniProtKB Q08462', 'Activity', '%', 59.3),
  ('CCc1ccc([C@H]2OC3(C(=O)c4ccccc4C3=O)[C@H]3C(=O)N(c4ccc(C)cc4)C(=O)[C@@H]23)cc1', 'UniProtKB Q08462', 'Activity', '%', 95.9),
  ('Cc1ccc([C@H]2OC3(C(=O)c4ccccc4C3=O)[C@H]3C(=O)N(c4ccccc4Cl)C(=O)[C@@H]23)cc1', 'UniProtKB Q08462', 'Activity', '%', 93.6),
  ('Cc1ccc([C@H]2OC3(C(=O)c4ccccc4C3=O)[C@H]3C(=O)N(c4ccc(C)cc4F)C(=O)[C@@H]23)cc1', 'UniProtKB Q08462', 'Activity', '%', 107),
  ('CCOc1ccc(N2C(=O)[C@H]3[C@@H](c4ccc(C)cc4)OC4(C(=O)c5ccccc5C4=O)[C@H]3C2=O)cc1', 'UniProtKB Q08462', 'Activity', '%', 97.7),
  ('CC(C)=C[C@H]1OC2(C(=O)c3ccccc3C2=O)[C@H]2C(=O)N(c3ccccc3Cl)C(=O)[C@@H]12', 'UniProtKB Q08462', 'Activity', '%', 44.7),
  ('Cc1ccc([C@H]2OC3(C(=O)c4ccccc4C3=O)[C@H]3C(=O)N(C(C)C)C(=O)[C@@H]23)cc1', 'UniProtKB Q08462', 'Activity', '%', 59),
  ('Cc1ccc([C@H]2OC3(C(=O)c4ccc(Cl)cc4C3=O)[C@H]3C(=O)N(c4ccccc4Cl)C(=O)[C@@H]23)cc1 (mixture of isomers)', 'UniProtKB Q08462', 'Activity', '%', 96.2);
